# tested_system: Mitogen-activated protein kinase kinase kinase kinase 1 (Homo sapiens, UniProt Q92918)
# Sequence (Q92918 whole entry, the tested form may be a part): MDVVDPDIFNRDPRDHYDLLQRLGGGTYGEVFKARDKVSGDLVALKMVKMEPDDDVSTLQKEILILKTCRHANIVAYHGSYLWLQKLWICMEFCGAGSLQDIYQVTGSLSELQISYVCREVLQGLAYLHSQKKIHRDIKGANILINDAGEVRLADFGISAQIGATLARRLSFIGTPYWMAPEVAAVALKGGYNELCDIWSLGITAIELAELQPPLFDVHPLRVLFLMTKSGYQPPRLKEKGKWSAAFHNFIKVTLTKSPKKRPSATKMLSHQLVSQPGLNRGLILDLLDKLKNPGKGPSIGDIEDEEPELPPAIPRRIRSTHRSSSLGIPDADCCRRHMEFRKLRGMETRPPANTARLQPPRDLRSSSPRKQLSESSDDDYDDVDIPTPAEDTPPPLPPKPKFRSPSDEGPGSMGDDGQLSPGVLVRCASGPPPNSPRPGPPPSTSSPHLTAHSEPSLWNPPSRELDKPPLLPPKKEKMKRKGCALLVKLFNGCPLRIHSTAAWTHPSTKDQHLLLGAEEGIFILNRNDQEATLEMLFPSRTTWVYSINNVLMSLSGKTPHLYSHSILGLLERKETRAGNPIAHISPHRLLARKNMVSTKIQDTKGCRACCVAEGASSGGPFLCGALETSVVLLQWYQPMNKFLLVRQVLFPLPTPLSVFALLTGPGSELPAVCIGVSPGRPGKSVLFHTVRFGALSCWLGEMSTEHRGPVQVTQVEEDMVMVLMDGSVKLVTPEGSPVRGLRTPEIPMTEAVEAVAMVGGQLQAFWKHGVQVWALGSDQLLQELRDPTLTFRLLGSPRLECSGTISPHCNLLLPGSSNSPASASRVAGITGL
# method_notes: Binding affinity to HPK1 (unknown origin) assessed as dissociation constant by SPR analysis
measured_quantity: pKd
A value of pKd is the negative decimal logarithm of a concentration given in moles per litre.

Input "Cn1cc(Nc2ncc(C3=CCC[C@@H](NC(=O)c4ccccc4)C3)nc2C(N)=O)cn1" . Output pKd: 8.66

----------
# tested_system: Mitogen-activated protein kinase kinase kinase kinase 1 (Homo sapiens, UniProt Q92918)
# method_notes: Inhibition of N-terminal DYKDDDDK-tagged human HPK1 (1 to 346 residues) expressed in baculovirus expression system using SLP76 as substrate incubated for 1 hr in presence of ATP by TR-FRET assay
measured_quantity: IC50 (nM)
Write down the numeric answer in nM and omit the unit.

Input "COc1cc2c(cc1Nc1ncc(Cl)c(Nc3ccccc3P(C)(C)=O)n1)CN(C)CC2" . Output IC50: 0.334

----------
measured_quantity: IC50

Let me check: "Cc1[nH]c2nnc(C)n2c(=O)c1CC(=O)Nc1ncc(Cc2ccccc2F)s1" , system Tyrosine-protein kinase ZAP-70 (Homo sapiens), measured IC50 is > 49.5 µM

----------
# tested_system: Mitogen-activated protein kinase kinase kinase kinase 1 (Homo sapiens, UniProt Q92918)
# method_notes: Inhibition of full-length HPK1 (unknown origin) assessed as inhibition constant in presence of ATP by HTRF assay
measured_quantity: Ki (nM)
Write down the numeric answer in nM and omit the unit.

Input "Cc1c(N)cncc1-c1cc2cc(Nc3cc4n(n3)CC(=O)N(C(C)C)CC4)ncc2cc1F" . Output Ki: 0.05

----------
# tested_system: Mitogen-activated protein kinase kinase kinase kinase 1 (Homo sapiens)
# method_notes: Inhibition of HPK1 (unknown origin) assessed as inhibition constant by Lanthascreen binding assay
What Ki was measured for each of the following?
Remember to quote the unit after the number.

Input "Cc1cc2cc(N)c(C(=O)N(C)C)nc2[nH]1" . Output Ki: 1300 nM

Input "CCc1c(C)[nH]c2nc(C(=O)N(C)C)c(N)cc12" . Output Ki: 15 nM

Input Cc1c(CC#N)ccnc1-c1cccc(-c2cnc3c(c2Cl)C2(CC[C@@](C)(C(N)=O)C2)CN3)c1F (stereo not given in full) . Output Ki: 0.39 nM

Input "CCc1c(Cl)[nH]c2nc(C(=O)N(C)C)c(N)cc12" . Output Ki: 0.9 nM

Input "Cc1c(CC#N)ccnc1-c1cc(N)cc(-c2cnc3c(c2Cl)[C@]2(CC[C@](C)(C#N)C2)CN3)c1" . Output Ki: 0.9 nM

----------
# tested_system: Mitogen-activated protein kinase kinase kinase kinase 1 (Homo sapiens)
# method_notes: Inhibition of HPK1 in human PBMC assessed as inhibition of SLP76 phosphorylation incubated for 1 hr by ELISA
# Format: cell-based
measured_quantity: pIC50
A value of pIC50 is the negative decimal logarithm of a concentration given in moles per litre.

Let me check: "COc1cc2c(cc1Nc1ncc(Cl)c(Nc3ccccc3P(C)(C)=O)n1)CN(C)CC2" , system Mitogen-activated protein kinase kinase kinase kinase 1 (Homo sapiens), measured pIC50 is 7.00

----------
# tested_system: Mitogen-activated protein kinase kinase kinase kinase 1 (Homo sapiens, UniProt Q92918)
# method_notes: Inhibition of HPK1 (unknown origin) assessed as inhibition of SLP76 phosphorylation by HTRF assay
What IC50 was measured for each of the following?
Write down the numeric answer in µM and omit the unit.

Input "CNCc1nc(C2(C)CC2)cc2c1CN(c1cccc(N3C(=O)OC[C@@H]3C)n1)C2=O" . Output IC50: 0.73

Input "CC(C)n1cnnc1-c1cccc(N2Cc3c(cc(N4CCC[C@H]4C)nc3CN)C2=O)n1" . Output IC50: 0.022
